Experiment Description: in vitro
Format: cell-based, human
Condition Parameters: human, Cell viability(%), AVERAGE
Value Kind: viability at 0.1 µM (%)
Numbers only, in %.

Query: Which measured viability at 0.1 µM value corresponds to `Cc1cc(C2CCCCC2)n(O)c(=O)c1` ?
Response: 100

###

Experiment Description: in vitro
Condition Parameters: human, Cell viability(%), AVERAGE
Value Kind: viability at 10 µM

Query: Which measured viability at 10 µM value corresponds to `Cc1cc(C2CCCCC2)n(O)c(=O)c1` ?
Response: 99.8%

###

Experiment Description: in vitro
Condition Parameters: human, Cell viability(%), individual samples
Value Kind: viability at 10 µM
Numeric answer plus unit only.

Query: Which measured viability at 10 µM value corresponds to Cc1cc(C2CCCCC2)n(O)c(=O)c1 [Ciclopirox] ?
Response: 99.9%
